pIC50: −log10 of the molar value.
Quick record of pIC50 values for CDK9 kinase (Homo sapiens).
result.type: pIC50

1) Cn1ccc([C@@H]2CCC[C@H](C(=O)Nc3cc(-c4cnn5c4CC(C)(C)C5)c(Cl)cn3)C2)n1 (single isomer, unassigned): 8.49
2) CC(=O)N1C[C@H]2CC(C(=O)Nc3cc(-c4cc(C#N)n5c4CC(C)(C)C5)c(Cl)cn3)C[C@H]2C1 (single isomer, unassigned): 8.49
3) CNC(=O)C1C[C@@H]2CC(C(=O)Nc3cc(-c4cc(C(N)=O)n5c4CC(C)(C)C5)c(Cl)cn3)C[C@@H]2C1 (single isomer, unassigned) [Compound 26-2]: 8.46
